System: Malme-3M
Protocol text: NCI tumour cell line growth inhibition, 48 h
Active and inactive are the calls of the source. No stated cut-off is given here; in the data, active = GI50 up to about 1.1 µM and inactive = higher.
Recorded metric: GI50

Example entries and their recorded answers appear below.
Compound: COc1ccc(/C=C(/C(=O)O)c2cc(OC)c(OC)c(OC)c2)cc1
GI50: 30.1 µM (inactive)
--
Compound: COc1cc(/C=C/C(=N\NS(=O)(=O)c2ccc(C)cc2)c2sc(NNC(C)=O)nc2C)ccc1O
GI50: > 100 µM (inactive)
--
Compound: O=C(CC(O)(C(F)(F)F)C(F)(F)Cl)CC(O)(C(F)(F)F)C(F)(F)Cl (stereo unspecified)
GI50: 1.14 µM (inactive)
--
Compound: O=C(O)c1cnccc1-c1cc(=O)[nH]n1-c1ccccc1
GI50: > 100 µM (inactive)
--
Compound: O=[N+]([O-])c1ccc(/C(Cl)=C/c2ccc(/C=C(\Cl)c3ccc([N+](=O)[O-])cc3[N+](=O)[O-])cc2)c([N+](=O)[O-])c1
GI50: > 100 µM (inactive)
--
Compound: CC(=O)O[C@H]1C[C@H](O[C@H]2[C@@H](O)C[C@H](O[C@H]3[C@@H](O)C[C@H](O[C@H]4CC[C@@]5(C)[C@H](CC[C@@H]6[C@@H]5CC[C@]5(O)[C@@H](C7=CC(=O)OC7)CC[C@]65O)C4)O[C@@H]3C)O[C@@H]2C)O[C@H](C)[C@H]1O[C@@H]1O[C@H](CO)[C@@H](O)[C@H](O)[C@H]1O
GI50: 0.403 µM (active)
--
Compound: CC(C)(C)[C@H]1CO[C@]2(c3ccccc3)[C@@H]3C[C@@H]3C(=O)N12
GI50: > 100 µM (inactive)
--
Compound: CCOCC(=O)N(C)c1cccc2c3c(n(C)c12)CCCCC3
GI50: > 100 µM (inactive)
--
Compound: O=C(c1ccco1)N(C(=S)N1CCN(c2ccccc2)CC1)C1CCCCC1
GI50: > 100 µM (inactive)
--
Compound: CCN(CC)CC1CCCCN1CC(=O)N1CC(C)C(=O)Nc2ccccc21 (stereo unspecified)
GI50: > 100 µM (inactive)

Go through the list and state GI50 for each entry.
1. CO/N=C(/C(=O)N(C(=O)/C(=N/OC)c1csc(NC(c2ccccc2)(c2ccccc2)c2ccccc2)n1)n1cnn(CC(=O)OC(C)(C)C)c1=O)c1csc(NC(c2ccccc2)(c2ccccc2)c2ccccc2)n1
2. COc1ccc2c(c1)c(=O)c1c(NCCCN(C)CCCNc3ccc4c(=O)n(CCN(C)C)c(=O)n5c6ccc(OC)cc6c(=O)c3c45)ccc3c(=O)n(CCN(C)C)c(=O)n2c31
3. Cc1cccc(-c2nnc3s/c(=C\c4ccc5c(c4)OCO5)c(=O)n23)c1
4. C[C@]1(O)CC(=O)c2c(c(-c3ccc4cc5c(c(O)c4c3O)C(=O)C[C@@](C)(O)C5)c3cccc(O)c3c2O)C1
5. CCOC(=O)C1(C(=O)OCC)C(C(C)(C)C)=C(C)c2ccccc21
6. O=[N+]([O-])c1ccc(O)c(/C=N/CC2CCCN3CCCCC23)c1 (stereo unspecified)

(A)
> 10 µM (inactive)
0.484 µM (active)
> 100 µM (inactive)
6.35 µM (inactive)
11.4 µM (inactive)
31 µM (inactive)

----------
Test system: HOP-62
Protocol text: NCI tumour cell line growth inhibition, 48 h
Calls of active or inactive are those of the source. Rule as the data show it: active = GI50 up to about 1.1 µM and inactive = higher.
Recorded metric: GI50

Example entries and their recorded answers appear below.
Molecule: O=S1(=O)CCC2=CC(C(F)(F)F)=CC(C(F)(F)F)=CN21
GI50: 2.34 µM (inactive)

Molecule: O=C1OC(c2ccccc2)=N/C1=C/NC(CS)C(=O)O (stereo not given)
GI50: > 100 µM (inactive)

Molecule: CCOC(=O)c1nnsc1NC(=O)Nc1ccc(Cc2ccc(NC(=O)Nc3snnc3C(=O)OCC)cc2)cc1
GI50: 32.7 µM (inactive)

Molecule: O=c1c(F)cn(Cc2c(Cl)cccc2Cl)c(=O)n1Cc1c(Cl)cccc1Cl
GI50: > 31.6 µM (inactive)

Molecule: CNc1cccnc1/C=N/N=C(/N)S
GI50: 3.11 µM (inactive)

Go through the list and state GI50 for each entry.
1. O=[N+]([O-])c1ccc2c3c1[C@@H]1O[C@@H]1c1cccc(c1-3)[C@@H]1O[C@H]21
2. CN(C)CCNC1=CC(=O)c2nc3ccccc3c3ccnc1c23
3. CCCCNC(=S)Nc1nc(C(=O)NNC(=S)NCC)cs1
4. C1CSC2=C(S1)SC1=C(S2)SC(=C2SC3=C(SC4=C(SCCS4)S3)S2)S1
5. CCCCCCCCCc1cc(-c2ccc(C=O)s2)sc1-c1ccc(C=O)s1

(A)
["10.2 µM (inactive)", "4.79 µM (inactive)", "> 100 µM (inactive)", "> 100 µM (inactive)", "27.7 µM (inactive)"]

----------
I'd appreciate it if you could supply GI50 values for the items below.
System: MDA-MB-231
Protocol text: NCI tumour cell line growth inhibition, 48 h
The source made the active and inactive calls. Cut-off read from the data, not from the text of the source: active = GI50 up to about 1.1 µM and inactive = higher.

Example entries and their recorded answers appear below.
Compound: COc1ccc(C(=O)NCCN(C)C)c2nc3ccccc3cc12
GI50: 2.12 µM (inactive)

Compound: CN(C)CCNC(=O)c1nc([N+](=O)[O-])cn1C
GI50: > 100 µM (inactive)

Compound: CN(C)c1ccc(/C=C(\NC(=O)c2ccccc2)C(=O)NC(Cc2c[nH]c3ccccc23)C(=O)O)cc1 (stereo not given)
GI50: > 100 µM (inactive)

Compound: O=[N+]([O-])c1ccc2c3c1[C@@H]1O[C@@H]1c1cccc(c1-3)[C@@H]1O[C@H]21
GI50: 6.44 µM (inactive)

Then this compound:
GI50 reported for this compound O=C(O)Cn1cnc2c(O)nc(Nc3ccccc3)nc21 : > 100 µM (inactive)

----------
Tested on: HCT-116
Protocol text: NCI tumour cell line growth inhibition, 48 h
Calls of active or inactive are those of the source. Rule as the data show it: active = GI50 up to about 1.1 µM and inactive = higher.
Mark one answer only. Choices: Y = active, N = inactive

Compound: COc1cc(Nc2nc3cc(C(F)(F)F)ccc3nc2C)cc(OC)c1OC
Label class: N

(Q) Give the logged outcome of this assay for the following compound: Cc1ccc(-n2nnc(C(N)=O)c2O)cc1
(A) N

(Q) Give the logged outcome of this assay for the following compound: CC1=C(C(=O)Nc2ccccc2C)C(c2ccccc2)C(C(=O)Nc2ccccc2C)=C(C)N1
(A) N

(Q) Give the logged outcome of this assay for the following compound: O=C1Sc2cc3ccccc3cc2C(=O)Sc2cc3ccccc3cc21
(A) N

(Q) Give the logged outcome of this assay for the following compound: CCCCNc1nc2ccccc2c2c1ncn2CC(C)C
(A) N

(Q) Give the logged outcome of this assay for the following compound: O=c1c(F)cn(Cc2c(Cl)cccc2Cl)c(=O)n1Cc1c(Cl)cccc1Cl
(A) N

(Q) Give the logged outcome of this assay for the following compound: N#CC(NNC(=O)c1c(Cl)c(Cl)c(Cl)c(Cl)c1-c1nc2cc(C(=O)c3ccccc3)ccc2[nH]1)c1cccc(Oc2ccccc2)c1 (stereo unspecified)
(A) N

(Q) Give the logged outcome of this assay for the following compound: NC(CSC(=O)c1ccccc1)C(=O)O (stereo unspecified)
(A) N

(Q) Give the logged outcome of this assay for the following compound: CC(=O)NC1CONC1=O (stereo unspecified)
(A) N

(Q) Give the logged outcome of this assay for the following compound: COc1ccc(/C(=N\Nc2ccccn2)c2ccccn2)cc1
(A) Y

(Q) Give the logged outcome of this assay for the following compound: O=[N+]([O-])c1ccc(O)c(/C=N/CC2CCCN3CCCCC23)c1 (stereo unspecified)
(A) N

----------
Test system: HOP-62
Protocol text: NCI tumour cell line growth inhibition, 48 h
Active and inactive are the calls of the source. No stated cut-off is given here; in the data, active = GI50 up to about 1.1 µM and inactive = higher.
Recorded metric: GI50

Example entries and their recorded answers appear below.
Compound: O=C(/C=C/c1ccc(Cl)cc1)c1ccc(Cl)c(Cl)c1
GI50: 22 µM (inactive)

Compound: O=C1C[C@H]2CCCN2[C@@H](c2ccccc2)C1
GI50: > 100 µM (inactive)

Compound: C/C(O)=C/C(=O)c1[nH]c(C(=O)O)cc1C1CCN(Cc2ccccc2)C1=O (stereo unspecified)
GI50: 15.8 µM (inactive)

Compound: O=C1c2ccccc2C(=O)c2[nH]c(Cc3ccc(F)cc3)nc21
GI50: 21.9 µM (inactive)

Compound: CN(C(=O)C12C3C4C1C1C2C3C41I)C(C)(C)C (stereo unspecified)
GI50: > 100 µM (inactive)

Then this compound:
GI50 reported for this compound NCCSS(=O)(=O)CCN : > 100 µM (inactive)

----------
Tested on: SNB-75
Protocol text: NCI tumour cell line growth inhibition, 48 h
Calls of active or inactive are those of the source. No stated cut-off is given here; in the data, active = GI50 up to about 1.1 µM and inactive = higher.
I'd appreciate it if you could supply GI50 values for the items below.

Example entries and their recorded answers appear below.
Compound: Nc1ccc2c(c1)Cc1ccccc1-2
GI50: 31.6 µM (inactive)
--
Compound: COc1cc(CCCC(O)COc2cccc3c2C2(O)CCCCCC32)cc(OC)c1 (stereo unspecified)
GI50: 12.1 µM (inactive)

Go through the list and state GI50 for each entry.
1. CNC(=O)Nc1cc2c3c(c1)CCCN3CCC2
2. Clc1cccc2[nH]ncc12
3. CNc1cccnc1/C=N/N=C(/N)S
4. COc1ccc(/C=C2/C(=O)N(/C=C3\C(=O)Oc4ccccc4C3=O)/C(=N/C(C)=O)N2C)cc1OC
5. Cn1cnc([N+](=O)[O-])c1Sc1nc(N)nc2c1ncn2Cc1ccccc1
6. COc1cc2ccc3ccncc3c2cc1OC
7. CCOC(=O)C1(C(=O)OCC)C(C(C)(C)C)=C(C)c2ccccc21
8. CO/N=C(/C(=O)N(C(=O)/C(=N/OC)c1csc(NC(c2ccccc2)(c2ccccc2)c2ccccc2)n1)n1cnn(CC(=O)OC(C)(C)C)c1=O)c1csc(NC(c2ccccc2)(c2ccccc2)c2ccccc2)n1

(A)
1. > 10 µM (inactive)
2. 45.3 µM (inactive)
3. 0.863 µM (active)
4. 45.9 µM (inactive)
5. 20.4 µM (inactive)
6. > 10 µM (inactive)
7. 19.3 µM (inactive)
8. > 10 µM (inactive)
